target: acetylcholine muscarinic M1 receptor (Homo sapiens); construct: expressed in transfected cells; host or cells: CHOnfat cells (CHO cells with an NFAT reporter) expressing hM1, kept under Geneticin selection; assay: muscarinic FLIPR assay: intracellular calcium in CHOnfat/hM1 cells, potentiation of EC20 acetylcholine; assay type: cell-based; details: Table 2; CHOnfat/hM1 cells, FLIPR, EC20 acetylcholine (3 nM final); read-out: M1 Pot.
Sequence (P11229 whole entry): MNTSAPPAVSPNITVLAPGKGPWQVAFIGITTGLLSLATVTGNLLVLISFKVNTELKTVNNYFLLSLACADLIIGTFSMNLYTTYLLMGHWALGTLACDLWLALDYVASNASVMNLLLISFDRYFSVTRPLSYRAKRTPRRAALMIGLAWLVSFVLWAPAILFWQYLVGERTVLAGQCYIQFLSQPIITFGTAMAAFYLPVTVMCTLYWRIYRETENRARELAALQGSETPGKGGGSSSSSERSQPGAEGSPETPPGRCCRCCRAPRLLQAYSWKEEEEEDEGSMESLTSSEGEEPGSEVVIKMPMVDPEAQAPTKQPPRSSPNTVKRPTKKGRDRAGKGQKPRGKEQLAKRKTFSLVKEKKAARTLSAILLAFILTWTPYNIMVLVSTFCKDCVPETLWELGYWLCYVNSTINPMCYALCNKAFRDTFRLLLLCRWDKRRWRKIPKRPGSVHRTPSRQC
pEC50: −log10 of the molar value.
property: pEC50

COc1cccc(C2(C#N)CCN(Cc3cc4c(c5ncccc35)CN([C@H]3CCCC[C@@H]3O)C4=O)CC2)n1 = 7.72
O=C1c2cc(CN3CCC(C4CC4)CC3)c3cccnc3c2CN1C1CCCCC1O (centres unmarked) = 5.92
CC1c2c(cc(CN3CCC(F)(F)CC3)c3cccnc23)C(=O)N1[C@@H]1CCOC[C@@H]1O (some centres unmarked) = 7.92
CCN(CC)Cc1cc2c(c3ncccc13)CN(C1CCCCC1O)C2=O (centres unmarked) = 5.40
CCC1c2c(cc(CN3CCC(F)(C#N)CC3)c3cccnc23)C(=O)N1[C@@H]1CCCC[C@@H]1O (some centres unmarked) = 7.68

[I] O=C1c2cc(CN3CCC(C(F)(F)F)CC3)c3cccnc3c2CN1C1CCCCC1O (centres unmarked)
[II] CC#CC1(F)CCN(Cc2cc3c(c4ncccc24)CN([C@H]2CCCC[C@@H]2O)C3=O)CC1
Req: Param pair: I , II . Output: the one whose pEC50 is numerically greater. Give the chosen item's label as your response.
Resp: II
